Recorded values, source patent US20250171438A1.

# STUDY TARGET: human PAH with the R408W mutation (Homo sapiens, UniProt P00439, R408W)
# Construct: expressed in transfected cells
# Sequence (P00439 1-452 R408W): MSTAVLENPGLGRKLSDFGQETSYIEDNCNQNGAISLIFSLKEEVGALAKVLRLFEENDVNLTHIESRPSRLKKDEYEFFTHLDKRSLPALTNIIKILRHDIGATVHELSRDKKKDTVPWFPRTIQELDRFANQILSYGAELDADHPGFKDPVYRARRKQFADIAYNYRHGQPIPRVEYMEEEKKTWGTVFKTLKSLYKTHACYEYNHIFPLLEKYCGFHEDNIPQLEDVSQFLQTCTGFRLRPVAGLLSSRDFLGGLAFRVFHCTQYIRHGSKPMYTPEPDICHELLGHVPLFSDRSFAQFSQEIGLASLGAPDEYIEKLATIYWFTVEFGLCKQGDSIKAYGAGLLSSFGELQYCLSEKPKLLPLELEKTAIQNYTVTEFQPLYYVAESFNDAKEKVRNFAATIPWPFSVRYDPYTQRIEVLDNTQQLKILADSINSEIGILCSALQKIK
# TEST SUMMARY: Cell Based Phenylalanine Flux Assay
# ASSAY CONTEXT: A375 cells expressing human R408W PAH; 24 hrs with compound; 13C-Tyrosine by LC-MS; average where tested multiple times; read-out: AC50
# reported AC50; entries follow

* O=C(c1nnc(CCN2CCOCC2)o1)N1CCc2[nH]cnc2C1c1nc2ccccc2s1 (stereo not drawn) | > 5 µM
* O=C(c1nnc(CCNC2CC2)o1)N1CCc2[nH]cnc2C1c1nc2ccccc2s1 (stereo not drawn) | > 5 µM
* O=C(Cc1nccs1)N1CCc2[nH]cnc2C1c1nc2cc(F)ccc2s1 (stereo not drawn) | 1 to 5 µM
* O=C(c1ncc[nH]1)N1CCc2[nH]cnc2C1c1nc2ccccc2[nH]1 (stereo not drawn) | 1 to 5 µM
* Cc1nc(-c2ccccn2)oc1C(=O)N1CC2(CC2)c2[nH]cnc2[C@H]1c1nc2ccccc2s1 (single isomer, unassigned) | 1 to 5 µM

Sample O=C(c1nnc(-c2ccccn2)o1)N1CCc2[nH]cnc2C1c1nc2ccccc2[nH]1 (stereo not drawn) ; AC50 observed: 1 to 5 µM

Sample O=C(c1ocnc1-c1ccccn1)N1CCCc2[nH]cnc2C1c1nc2ccccc2s1 (stereo not drawn) ; AC50 observed: > 5 µM

Sample N#Cc1n[nH]cc1C(=O)N1CCc2[nH]cnc2C1c1nc2ccccc2s1 (stereo not drawn) ; AC50 observed: 1 to 5 µM

Sample COC(=O)N1CC(C(=O)N2CCc3[nH]cnc3C2c2nc3c(F)cccc3s2)C1 (stereo not drawn) ; AC50 observed: 1 to 5 µM
